For each of the compounds below, state its pLD50.
# Tested on: Bombyx mori
# measurement-protocol: Larvicidal activity against Bombyx mori assessed as mortality applied topically after 1 week; also: unit not given here
# Assay type: functional
One number for each entry.

Recorded pLD50, per entry:
Cc1cc(C)cc(C(=O)N(NC(=O)c2ccccc2)C(C)(C)C)c1; 5.98
Cc1cc(C)cc(C(=O)N(NC(=O)c2ccc(C(C)(C)C)cc2)C(C)(C)C)c1; 7.19
CCc1ccc(C(=O)NC2(C(=O)c3cc(C)cc(C)c3)CCCCC2)cc1; 6.08
Cc1cc(C)cc(C(=O)N(NC(=O)c2ccc3c(c2C)CCCO3)C(C)(C)C)c1 [CHROMAFENOZIDE]; 7.55

Hi there! I need pLD50 for each item below, if you can.
1. COc1cccc(C(=O)NN(C(=O)c2cc(C)cc(C)c2)C(C)(C)C)c1C [METHOXYFENOZIDE]
2. CC(C)(C)N(NC(=O)c1ccccc1)C(=O)c1ccccc1

8.18
5.55

Hi there! I need pLD50 for each item below, if you can.
1. CCc1ccc(C(=O)NN(C(=O)c2cc(C)cc(C)c2)C(C)(C)C)cc1 [TEBUFENOZIDE]
2. Cc1c(C(=O)NN(C(=O)c2ccccc2Cl)C(C)(C)C)ccc2c1CCCO2

1. 7.6
2. 6.95

* * *

# measurement-protocol: Cytotoxicity against Bombyx mori Bm5 cells assessed as cell viability after 24 hr by MTT assay
# Format: cell-based
# condition-parameters: read-out: pLC50 (converted)
# note: exactly 30 µM is not below, so it is f; use t for CC50 at 24 h strictly under it

Take a look at these entries with their results.
Cc1ccc(NC2CCN(C(=O)c3ccc(Cl)cc3)CC2)cc1; t
Cc1cc(C)cc(C(=O)C2(NC(=O)C(F)(F)F)CCCCC2)c1; f
Cc1ccc(N(C(=O)c2ccc(Cl)cc2)C2CC(C)N(C(=O)c3ccc(Cl)cc3)c3ccc(C)cc32)cc1 (stereo not given); t
CC1CC(Nc2ccc(F)cc2)c2cc(F)ccc2N1C(=O)c1ccc(Cl)cc1 (stereo not given); f
Cc1ccc(NC2CC(C)N(C(=O)c3ccc(Cl)cc3)c3ccc(C)cc32)cc1 (stereo not given); f
Cc1ccc(NC2CC(C)N(C(=O)c3ccc(C(C)(C)C)cc3)c3ccc(C)cc32)cc1 (stereo not given); t

In plain terms, does CCc1ccc(C(=O)NC(C(=O)c2cc(C)cc(C)c2)C(C)(C)C)cc1 (stereo not given) come in under 30 µM for CC50 at 24 h?
f

In plain terms, does CC1CCc2ccccc2N1C(=O)c1ccc(Cl)cc1 (stereo not given) come in under 30 µM for CC50 at 24 h?
f

In plain terms, does Cc1ccc(NC2CCN(C(=O)c3ccc(Cl)cc3)c3ccccc32)cc1 (stereo not given) come in under 30 µM for CC50 at 24 h?
t

* * *

# Test system: Bombyx mori
# measurement-protocol: Larvicidal activity against Bombyx mori assessed as mortality applied topically after 1 week; also: unit not given here
# Type: functional
Binary call on pLD50: 1 from 7 upward, 0 beneath that.

Take a look at these entries with their results.
Cc1ccccc1C(=O)NN(C(=O)c1ccccc1Cl)C(C)(C)C; 0
COc1ccc(C(=O)NN(C(=O)c2ccccc2Cl)C(C)(C)C)cc1; 0
CC(C)(C)N(NC(=O)c1ccccc1F)C(=O)c1ccccc1Cl; 1
Cc1cc(C)c(Cl)c(C(=O)N(NC(=O)c2ccc3c(c2C)CCCO3)C(C)(C)C)c1; 0
CCc1ccc(C(=O)NN(C(=O)c2cc(C)cc(C)c2Cl)C(C)(C)C)cc1; 0

Reported pLD50 reaches at least 7 for Cc1cc(C)cc(C(=O)N(NC(=O)c2cccc(C)c2C)C(C)(C)C)c1 ?
1

Reported pLD50 reaches at least 7 for CC(C)(C)N(NC(=O)c1ccc(Br)cc1)C(=O)c1ccccc1Cl ?
0

Reported pLD50 reaches at least 7 for CC(C)(C)N(NC(=O)c1cccc(Cl)c1)C(=O)c1ccccc1Cl ?
0

Reported pLD50 reaches at least 7 for Cc1cc(C)cc(C(=O)C2(NC(=O)c3ccc4c(c3C)CCCO4)CCCCC2)c1 ?
0

Reported pLD50 reaches at least 7 for CC(C)(C)N(NC(=O)c1ccc(Cl)cc1)C(=O)c1ccccc1 [HALOFENOZIDE] ?
0
